- System: purified HLA DRB1*1302 (Homo sapiens, UniProt P01903+P01911, A100E/A169T/K41T/L162R/M171V/P40S/Q125H/Q178H/Q39Y/Q99D/R42S/S66N/T262R/V115G/W38E/Y61H)
- Construct: purified from EBV transformed homozygous cell lines or single MHC allele transfected 721.221, C1R, or fibroblast lines; made in house
- Test protocol: HLA-DR radioligand binding inhibition assay, DRB1*1302
Property name: IC50 (nM)
Record the value in nM, omitting the unit from your answer.

* CC[C@H](C)[C@H](NC(=O)[C@@H](NC(=O)[C@@H]1CCCN1C(=O)[C@H](C)N)[C@@H](C)O)C(=O)N[C@@H](CO)C(=O)N1CCC[C@H]1C(=O)N[C@@H](CC(C)C)C(=O)N[C@@H](CC(N)=O)C(=O)N[C@H](C(=O)N[C@@H](CO)C(=O)N[C@@H](Cc1ccc(O)cc1)C(=O)N[C@@H](CCCNC(=N)N)C(=O)N[C@@H](CO)C(=O)NCC(=O)N[C@@H](CCC(=O)O)C(=O)O)[C@@H](C)O [Peptide 9019.0121] | 125
* CSCC[C@H](NC(=O)[C@H](C)NC(=O)[C@H](CCCNC(=N)N)NC(=O)[C@H](CC(C)C)NC(=O)[C@@H](NC(=O)[C@H](CCCNC(=N)N)NC(=O)[C@H](CC(=O)O)NC(=O)[C@H](CC(N)=O)NC(=O)[C@H](CC(C)C)NC(=O)[C@H](CC(C)C)NC(=O)[C@H](CC(N)=O)NC(=O)[C@H](C)NC(=O)[C@@H](N)CC(=O)O)C(C)C)C(=O)N[C@@H](CC(C)C)C(=O)N[C@@H](CCCCN)C(=O)O [Peptide 9019.0146] | 286

Let us examine a further case.
Indicate the recorded IC50 value for this compound: CC(C)C[C@H](NC(=O)[C@H](CC(N)=O)NC(=O)[C@H](C)NC(=O)CNC(=O)[C@H](CO)NC(=O)[C@H](CC(C)C)NC(=O)[C@H](Cc1ccc(O)cc1)NC(=O)[C@H](CO)NC(=O)[C@@H](N)CO)C(=O)N[C@@H](CC(N)=O)C(=O)N[C@@H](CC(C)C)C(=O)N[C@@H](CO)C(=O)N[C@@H](CS)C(=O)N[C@@H](Cc1c[nH]cn1)C(=O)N[C@@H](CO)C(=O)O [Peptide 9019.0137]
37
